tested on: −1 PRF of SARS-CoV-2; experiment: microbe, parasite or virus in culture; format: cell-based; settings: Severe acute respiratory syndrome coronavirus 2; dose-dependent, FIG. 2C; read-out: IC50 of −1 PRF inhibition, SARS-CoV-2
pIC50: −log10 of the molar value.
value_type: pIC50

molecule: CCNCC1CCN(c2c(F)cc3c(=O)c(C(=O)O)cn(CC)c3c2F)C1 (stereo not shown) [merafloxacin]
result: ~4.70

###

Each entry below carries its reported PERCENT VIABILITY.
test system: HEK293T cells; test: Cell viability in the high-throughput screen (cell nuclei numbers); settings: 10 μM compound, cell nuclei numbers
Where a name gives a salt, the structure may show the parent alone.
value_type: PERCENT VIABILITY (%)

molecule: COc1cccc2c1C(=O)c1c(O)c3c(c(O)c1C2=O)C[C@@](O)(C(=O)CO)C[C@@H]3O[C@H]1C[C@H](N)[C@H](O)[C@H](C)O1
unit_label: %
numeric_result: 13.3

molecule: COc1cccc2c1C(=O)c1c(O)c3c(c(O)c1C2=O)C[C@@](O)(C(=O)CO)C[C@@H]3O[C@H]1C[C@H](N)[C@@H](O)[C@H](C)O1 [EPIRUBICIN HYDROCHLORIDE]
unit_label: %
numeric_result: 46.3

molecule: NCCCNc1ccc2c3c(nn2CCNCCO)-c2c(O)ccc(O)c2C(=O)c13
unit_label: %
numeric_result: 91.45

molecule: Nc1c2ccccc2nc2ccccc12
unit_label: %
numeric_result: 24.0

molecule: CC[C@]1(O)C[C@@H]2CN(CCc3c([nH]c4ccccc34)[C@@](C(=O)OC)(c3cc4c(cc3OC)N(C)[C@H]3[C@@](O)(C(N)=O)[C@H](O)[C@]5(CC)C=CCN6CC[C@]43[C@@H]65)C2)C1 [Vindesine Sulfate]
unit_label: %
numeric_result: 26.1

molecule: Cc1cc2nc3c(=O)[nH]c(=O)nc-3n(CC(O)C(O)C(O)CO)c2cc1C (stereo not shown)
unit_label: %
numeric_result: 187.1

molecule: CC[n+]1c(-c2ccccc2)c2cc(N)ccc2c2ccc(N)cc21 [HOMIDIUM BROMIDE]
unit_label: %
numeric_result: 310.9
